The reported measurements were obtained from patent US11098058B2.

target: human RIP1 kinase domain (2-375) (Homo sapiens (Human)); settings: tight-binding apparent inhibition constant (Ki app, Morrison equation); 50 nM enzyme, 50 μM ATP, 2 hours incubation
Reported Metric: Ki (nM)

| Compound | Target Or Test System | Ki [nM] |
| --- | --- | --- |
| CCC(=O)c1cc2n(n1)CC[C@H]2c1ccccc1 (single isomer, unassigned) | human RIP1 kinase domain (2-375) (Homo sapiens (Human)) | 2180 |
| CCC(=O)c1cn2c(n1)C(c1ccccc1)CC2 (centres unmarked) | human RIP1 kinase domain (2-375) (Homo sapiens (Human)) | 940 |
| CCC(=O)c1cc2n(n1)C(c1ccccc1)CC2 (centres unmarked) | human RIP1 kinase domain (2-375) (Homo sapiens (Human)) | 44.2 |
| CC(C)C(=O)c1nc2n(n1)C(c1ccccc1)CC2F (centres unmarked) | human RIP1 kinase domain (2-375) (Homo sapiens (Human)) | 14.3 |

I: CC(C)(C)C(=O)c1nc2n(n1)C(c1ccccc1)CC2F (centres unmarked)
II: CC1(C(=O)c2nc3n(n2)[C@H](c2ccccc2)C[C@@H]3F)COC1 (single isomer, unassigned)
## Task Decide: I or II , by lowest recorded Ki. When you have decided, please share the label of that item.
## Result I

* * *

biological target: human RIP1 kinase domain (2-375) (Homo sapiens (Human)); settings: RIP1 kinase inhibition, tight-binding apparent Ki; 50 nM enzyme, 50 μM ATP, 2 hours incubation
Reported Metric: Ki (nM)

// below: answered molecules
| Molecule | Ki, nM |
| --- | --- |
| CCC[C@@H]1C[C@H](F)c2nc(C(=O)C3CC3)nn21 (single isomer, unassigned) | 41 |
| O=C(c1nc2n(n1)[C@H](c1ccccc1)C[C@H]2Cl)C1CC1 (single isomer, unassigned) | 560 |
| O=C(c1nc2n(n1)[C@H](c1cccc(F)c1F)C[C@@H]2F)C1CC1 (single isomer, unassigned) | 3.1 |
| CO[C@H]1C[C@@H](c2ccccc2)n2nc(C(=O)C3CC3)nc21 (single isomer, unassigned) | 150 |
| O=C(c1nc2n(n1)[C@H](c1ccccc1)C[C@@H]2F)C1CC1C(F)(F)F (some centres unmarked) | 28 |
| O=C(c1nc2n(n1)[C@H](c1ccccc1)C[C@@H]2F)C1C2CC(F)(F)CC21 (single isomer, unassigned) | 33 |
| Cn1cc(Cl)c([C@@H]2C[C@H](F)c3nc(C(=O)C4CC4)nn32)n1 | 32 |
| O=C(c1nc2n(n1)[C@H](c1ccccc1)C[C@@H]2F)C1(CF)CC1 | 3.4 |

A: O=C(c1nc2n(n1)[C@H](c1ccccc1)C[C@@H]2F)[C@@H]1C[C@H]2CC[C@@H]1O2 (single isomer, unassigned)
B: C[C@@H]1C[C@H]1C(=O)c1nc2n(n1)[C@H](c1ccccc1)C[C@@H]2F (single isomer, unassigned)
C: Cn1cc([C@@H]2C[C@H](F)c3nc(C(=O)C4CC4)nn32)cn1 (single isomer, unassigned)
## Task Ordering criterion: Ki; begin with the maximum. A ranking is expressed here by listing the labels in the requested order.
## Result A, C, B

* * *

molecular target: human RIP1 kinase domain (2-375) (Homo sapiens (Human)); assay: biochemical; settings: RIP1 kinase inhibition, tight-binding apparent Ki, 50 nM enzyme, 50 μM ATP, 2 hours incubation
pKi: −log10 of the molar value.
Reported Metric: pKi

P: [2H][C@@]1(Cl)C[C@@H](c2ccccc2)n2nc(C(=O)C3CC3)nc21 (racemic)
Q: O=C(c1cc2n(n1)[C@H](c1ccccc1)C[C@@H]2F)C1CC1 (racemic)
## Task // task: argmin of pKi over [ P , Q ] Choose, then provide that item's label.
## Result P

* * *

target: human RIP1 kinase domain (2-375) (Homo sapiens (Human)); details: RIP1 kinase inhibition, tight-binding apparent Ki; 50 nM enzyme, 50 μM ATP, 2 hours incubation
pKi: −log10 of the molar value.
Reported Metric: pKi

Observe how each entry below is paired with its result.
| Compound | pKi |
| --- | --- |
| O=C(c1cc2n(n1)[C@H](c1ccccc1)C[C@@H]2F)C1CC1 (single isomer, unassigned) [Example 159] | 8.30 |
| O=C(c1nc2n(n1)C(c1ccccc1)CCC2)C1CC1 (stereo not shown) [Example 145] | 6.59 |

P: O=C(c1nc2n(n1)[C@H](c1ccccc1)C[C@@H]2F)C1CC1c1ccccn1 (stereo partly shown) [Example 74]
Q: O=C(c1nc2n(n1)[C@H](c1cc(F)cc(F)c1F)C[C@@H]2F)C1CC1 (single isomer, unassigned) [Example 107]
## Task Larger number for pKi: P , or Q ? # reply format: chosen label
## Result Q
(Q: 8.41, P: 7.74)

* * *

molecular target: human RIP1 kinase domain (2-375) (Homo sapiens (Human), UniProt Q13546); assay: biochemical; details: tight-binding apparent inhibition constant (Ki app, Morrison equation), 50 nM enzyme, 50 μM ATP, 2 hours incubation
Sequence (Q13546 2-375): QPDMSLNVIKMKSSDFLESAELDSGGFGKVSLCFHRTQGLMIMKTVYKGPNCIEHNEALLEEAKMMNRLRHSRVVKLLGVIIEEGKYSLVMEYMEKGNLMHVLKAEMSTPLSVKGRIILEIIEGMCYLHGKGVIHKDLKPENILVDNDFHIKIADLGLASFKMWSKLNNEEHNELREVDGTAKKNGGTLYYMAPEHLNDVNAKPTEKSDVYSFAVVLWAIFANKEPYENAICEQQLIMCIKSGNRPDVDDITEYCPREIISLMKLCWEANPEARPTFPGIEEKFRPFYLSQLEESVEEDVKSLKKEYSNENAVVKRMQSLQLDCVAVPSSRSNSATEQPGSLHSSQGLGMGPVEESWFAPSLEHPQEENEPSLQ
Reported Metric: Ki (nM)

| Compound | Target Or Test System | Reported Result |
| --- | --- | --- |
| CCC(=O)c1nc2n(n1)[C@@H](c1ccccc1)C[C@@H]2F (racemic) | human RIP1 kinase domain (2-375) (Homo sapiens (Human), UniProt Q13546) | 193 |

A: O=C(Cc1ccccc1)c1nc2n(n1)[C@H](c1ccccc1)C[C@@H]2F (racemic)
B: O=C(c1nc2n(n1)[C@@H](c1ccccc1)C[C@@H]2F)C1CC1 (racemic)
C: O=C(c1ccccn1)c1nc2n(n1)[C@H](c1ccccc1)C[C@@H]2F (racemic)
D: CC1(C(=O)c2nc3n(n2)[C@H](c2ccccc2)C[C@@H]3F)COC1 (racemic)
## Task Order the records, beginning with the lowest Ki and ending with the highest. Output spec: labels arranged per the requested ranking.
## Result A, D, B, C
(A: 12.2 nM, D: 30 nM, B: 235 nM, C: 2360 nM)

* * *

molecular target: human RIP1 kinase domain (2-375) (Homo sapiens (Human), UniProt Q13546); conditions: RIP1 kinase inhibition, tight-binding apparent Ki; 50 nM enzyme, 50 μM ATP, 2 hours incubation
Reported Metric: Ki (nM)

| Molecule | Target Or Test System | Reported Result |
| --- | --- | --- |
| CC[C@@H]1C[C@H](F)c2nc(C(=O)C3CC3)nn21 (single isomer, unassigned) [Example 92] | human RIP1 kinase domain (2-375) (Homo sapiens (Human), UniProt Q13546) | 870 |
| O=C(c1nc2n(n1)[C@H](c1c(F)cccc1F)C[C@@H]2F)C1CC1 (single isomer, unassigned) [Example 94] | human RIP1 kinase domain (2-375) (Homo sapiens (Human), UniProt Q13546) | 3.1 |
| Cn1cc(Cl)c([C@@H]2C[C@@H](F)c3nc(C(=O)C4CC4)nn32)n1 [Example 155] | human RIP1 kinase domain (2-375) (Homo sapiens (Human), UniProt Q13546) | 970 |
| O=C(c1nc2n(n1)[C@H](c1ccccc1)C[C@@H]2F)[C@H]1C[C@@H]2CC[C@H]1O2 (single isomer, unassigned) [Example 141] | human RIP1 kinase domain (2-375) (Homo sapiens (Human), UniProt Q13546) | 9 |
| N#CCC1(C(=O)c2nc3n(n2)[C@H](c2ccccc2)C[C@@H]3F)CC1 (single isomer, unassigned) [Example 83] | human RIP1 kinase domain (2-375) (Homo sapiens (Human), UniProt Q13546) | 3.7 |
| O=C(c1nc2n(n1)[C@H](c1ccccc1)C[C@@H]2F)C1CC2(CC2)C1 (single isomer, unassigned) [Example 76] | human RIP1 kinase domain (2-375) (Homo sapiens (Human), UniProt Q13546) | 3.5 |
| O=C(c1nc2n(n1)[C@H](c1ccccc1)C[C@@H]2F)C1CC2C(C1)C2(F)F (single isomer, unassigned) [Example 82] | human RIP1 kinase domain (2-375) (Homo sapiens (Human), UniProt Q13546) | 10 |
| O=C(c1nc2n(n1)[C@H](c1ccccc1)C[C@@H]2F)C1(C2CC2)CC1 (single isomer, unassigned) [Example 99] | human RIP1 kinase domain (2-375) (Homo sapiens (Human), UniProt Q13546) | 2.9 |

1: O=C(c1cc2n(n1)[C@H](c1ccccc1)C[C@@H]2F)C1CC1 (single isomer, unassigned) [Example 108]
2: O=C(c1nc2n(n1)[C@H](c1ncccc1F)C[C@@H]2F)C1CC1 (single isomer, unassigned) [Example 150]
3: O=C(c1nc2n(n1)[C@@H](c1ccccc1)C[C@H]2F)C1CC(F)(F)C1 (single isomer, unassigned) [Example 64]
4: O=C(c1nc2n(n1)[C@H](c1ccccc1)C[C@@H]2F)C1(c2ccccn2)CC1 (single isomer, unassigned) [Example 98]
## Task Sort the 4 molecules by Ki; largest first, smallest last. A complete answer lists every label in the requested sequence.
## Result 3, 4, 2, 1
